Let's look at some compounds and their measured pest or weed control at 100 ppm.
System: Zymoseptoria tritici
assayInfo: Leaf blotch of wheat (SEPTTR) disease control on wheat seedlings
Type: in vivo
assayContext: 24 h, High volume application, 100 ppm, 1 Day Protectant, read-out: SEPTTR disease control rating, 1DP
metric: pest or weed control at 100 ppm

• COc1ccnc(C(=O)N[C@@H](C)C(=O)OC(C)C(C)c2c(C)cccc2C)c1O (stereo partly shown) = < 80%
• COc1ccnc(C(=O)N[C@H](C)C(=O)O[C@@H](C)[C@@H](C)c2ccc(F)cc2C)c1O = > 80%
• COc1ccnc(C(=O)NCC(=O)O[C@H](C)[C@@H](C)c2ccccc2C)c1O = < 0%
• COc1ccnc(C(=S)N[C@@H](C)C(=O)O[C@@H](C)[C@@H](C)c2ccccc2C(F)(F)F)c1O = < 80%
